# System: β-glucosidase
# Assay info: β-glucosidase inhibition assay (in situ screen, IC50, Ki)
# Assay type: biochemical, almonds
# Assay context: reaction product at 20 μM, in situ screening
# Method: A mixture of iminocyclitol 4, a carboxylic acid (1 equiv, Scheme 2), diisopropyl ethylamine (DIEA, 2.2 equiv), and (1H-benzotriazole-1-yl)-1,1,3,3-tetramethyl-uronium hexafluorophosphate (HBTU, 1.1 equiv) in DMSO was shaken in 96-well microtiter plates for 5 h. Crude reaction products were randomly selected (30%) and analyzed by ESI-MS to ensure the presence of the desired products. […]
Endpoint label: β-glucosidase Inhibition (%)
Provide a numeric answer, followed by its unit.

Illustrative cases are given below, each with its answer.
| Molecule | β-glucosidase Inhibition (%) |
| --- | --- |
| O=C(Cc1c[nH]c2ccccc12)NC[C@H]1N[C@H](CO)[C@@H](O)[C@@H]1O | 23% |
| O=C(/C=C/c1cccc(Br)c1)NC[C@H]1N[C@H](CO)[C@@H](O)[C@@H]1O | 52% |
| O=C(NC[C@H]1N[C@H](CO)[C@@H](O)[C@@H]1O)c1cn(Cc2ccccc2)c2ccccc12 | 28% |
| O=C(NC[C@H]1N[C@H](CO)[C@@H](O)[C@@H]1O)c1ccc2[nH]ccc2c1 | 15% |
| O=C(/C=C/c1cccc(C(F)(F)F)c1)NC[C@H]1N[C@H](CO)[C@@H](O)[C@@H]1O | 49% |

What value of β-glucosidase Inhibition (%) has been reported for the following molecule? `CN(C)c1ccc(C(=O)NC[C@H]2N[C@H](CO)[C@@H](O)[C@@H]2O)cc1`
55%

I would be grateful if you could share the reported β-glucosidase Inhibition (%) for CCCCC(CC)C(=O)NC[C@H]1N[C@H](CO)[C@@H](O)[C@@H]1O (stereo partly drawn) .
52%

For `O=C(NC[C@H]1N[C@H](CO)[C@@H](O)[C@@H]1O)c1ccc2c(c1)C(=O)c1ccccc1-2` , what is its reported β-glucosidase Inhibition (%)?
63%

----------
# Tested system: α-glucosidase (Saccharomyces cerevisiae)
# Construct: purchased Sigma Co. (St. Louis, Mo.); host or cells: baker's yeast
# Assay info: α-glucosidase inhibition assay (in situ screen, IC50, Ki)
# Format: biochemical, baker's yeast
# Assay context: reaction product at 20 μM, in situ screening
# Experimental: A mixture of iminocyclitol 4, a carboxylic acid (1 equiv, Scheme 2), diisopropyl ethylamine (DIEA, 2.2 equiv), and (1H-benzotriazole-1-yl)-1,1,3,3-tetramethyl-uronium hexafluorophosphate (HBTU, 1.1 equiv) in DMSO was shaken in 96-well microtiter plates for 5 h. Crude reaction products were randomly selected (30%) and analyzed by ESI-MS to ensure the presence of the desired products. […]
// α-glucosidase Inhibition (%) lookup, one value per entry
Your answer is read as %, so omit the unit and give the number.

Worked cases, answers included:
| Compound | Tested system | Reading unit | α-glucosidase Inhibition (%) |
| --- | --- | --- | --- |
| O=C(Cc1cccc2ccccc12)NC[C@H]1N[C@H](CO)[C@@H](O)[C@@H]1O | α-glucosidase (Saccharomyces cerevisiae) | % | 94 |
| O=C(/C=C/c1cccc(C(F)(F)F)c1)NC[C@H]1N[C@H](CO)[C@@H](O)[C@@H]1O | α-glucosidase (Saccharomyces cerevisiae) | % | 19 |
| CSc1ccccc1C(=O)NC[C@H]1N[C@H](CO)[C@@H](O)[C@@H]1O | α-glucosidase (Saccharomyces cerevisiae) | % | 51 |
| O=C(CCc1c[nH]c2ccccc12)NC[C@H]1N[C@H](CO)[C@@H](O)[C@@H]1O | α-glucosidase (Saccharomyces cerevisiae) | % | 83 |
| COC(=O)c1ccc2[nH]c(C(=O)NC[C@H]3N[C@H](CO)[C@@H](O)[C@@H]3O)cc2c1 | α-glucosidase (Saccharomyces cerevisiae) | % | 36 |
| O=C(/C=C/c1cccc(Cl)c1)NC[C@H]1N[C@H](CO)[C@@H](O)[C@@H]1O | α-glucosidase (Saccharomyces cerevisiae) | % | 19 |
| NC(Cn1ccc(=O)cc1)C(=O)NCC1NC(CO)C(O)C1O (centres unmarked) | α-glucosidase (Saccharomyces cerevisiae) | % | 27 |
| CN(C)c1ccc(/C=C/C(=O)NC[C@H]2N[C@H](CO)[C@@H](O)[C@@H]2O)cc1 | α-glucosidase (Saccharomyces cerevisiae) | % | 22 |
| O=C(/C=C/c1cccc(Br)c1)NC[C@H]1N[C@H](CO)[C@@H](O)[C@@H]1O | α-glucosidase (Saccharomyces cerevisiae) | % | 31 |
| O=C(/C=C/c1c[nH]c2ccccc12)NC[C@H]1N[C@H](CO)[C@@H](O)[C@@H]1O | α-glucosidase (Saccharomyces cerevisiae) | % | 42 |

We next turn to a different compound, shown below.
Consider the compound `O=C(NC[C@H]1N[C@H](CO)[C@@H](O)[C@@H]1O)c1ccc2[nH]ccc2c1` and give its measured α-glucosidase Inhibition (%).
82

----------
# N-acetyl-β-hexosaminidse Inhibition (%) annotations
# Tested on: N-acetyl-β-hexosaminidase
# Assay info: N-acetyl-β-hexosaminidase inhibition assay (in situ screen, IC50, Ki)
# Format: biochemical, jack bean
# Assay context: reaction product at 30 μM, in situ screening
Your answer should be a plain number; it is taken to be in %.

In the examples that follow, each entry is paired with its recorded N-acetyl-β-hexosaminidse Inhibition (%).
| Compound | Endpoint label | Measured |
| --- | --- | --- |
| NC(Cn1ccc(=O)cc1)C(=O)NCC1NC(CO)C(O)C1O (centres unmarked) | N-acetyl-β-hexosaminidse Inhibition (%) | 53 |
| COc1ccc(/C=C/C(=O)NC[C@H]2N[C@H](CO)[C@@H](O)[C@@H]2O)cc1OC(C)=O | N-acetyl-β-hexosaminidse Inhibition (%) | 52 |

Requested field: N-acetyl-β-hexosaminidse Inhibition (%). Item: `O=C(/C=C/c1cccc(Br)c1)NC[C@H]1N[C@H](CO)[C@@H](O)[C@@H]1O`
17

Data request, read-out N-acetyl-β-hexosaminidse Inhibition (%), for `CN(C)c1ccc(C(=O)NC[C@H]2N[C@H](CO)[C@@H](O)[C@@H]2O)cc1`
6

// returns reported N-acetyl-β-hexosaminidse Inhibition (%) for input `O=C(NC[C@H]1N[C@H](CO)[C@@H](O)[C@@H]1O)c1ccccc1`
13

Could you share which N-acetyl-β-hexosaminidse Inhibition (%) value was measured for `O=C(/C=C/c1c[nH]c2ccccc12)NC[C@H]1N[C@H](CO)[C@@H](O)[C@@H]1O` ?
16

Requested field: N-acetyl-β-hexosaminidse Inhibition (%). Item: `O=C(Cc1cccc2ccccc12)NC[C@H]1N[C@H](CO)[C@@H](O)[C@@H]1O`
45

// N-acetyl-β-hexosaminidse Inhibition (%) lookup, key: `O=C(NC[C@H]1N[C@H](CO)[C@@H](O)[C@@H]1O)c1ccc2c(c1)C(=O)c1ccccc1-2`
17

----------
# Tested system: α-glucosidase (Saccharomyces cerevisiae, UniProt P53341)
# Sequence (P53341 whole entry): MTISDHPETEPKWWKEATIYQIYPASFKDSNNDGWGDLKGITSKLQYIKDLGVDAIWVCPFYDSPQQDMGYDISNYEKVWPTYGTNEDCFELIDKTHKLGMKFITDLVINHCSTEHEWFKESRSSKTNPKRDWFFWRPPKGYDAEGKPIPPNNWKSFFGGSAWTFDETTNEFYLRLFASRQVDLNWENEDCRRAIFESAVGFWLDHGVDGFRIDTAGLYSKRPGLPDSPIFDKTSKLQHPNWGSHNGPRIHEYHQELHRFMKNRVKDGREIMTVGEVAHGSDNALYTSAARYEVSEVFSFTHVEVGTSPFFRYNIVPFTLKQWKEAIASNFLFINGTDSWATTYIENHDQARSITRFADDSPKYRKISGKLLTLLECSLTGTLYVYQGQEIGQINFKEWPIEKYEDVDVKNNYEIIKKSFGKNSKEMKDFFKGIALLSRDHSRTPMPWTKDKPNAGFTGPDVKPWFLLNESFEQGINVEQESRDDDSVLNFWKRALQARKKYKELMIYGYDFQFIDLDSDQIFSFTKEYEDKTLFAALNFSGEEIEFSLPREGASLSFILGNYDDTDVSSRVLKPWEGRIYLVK
Returns: string. Value is true (1) if measured IC50 is below 20 µM, and false (0) if it is greater than or equal to it.

Would you please look over these solved cases?
| Molecule | Tested system | Group label |
| --- | --- | --- |
| O=C(/C=C/c1c[nH]c2ccccc12)NC[C@H]1N[C@H](CO)[C@@H](O)[C@@H]1O | α-glucosidase (Saccharomyces cerevisiae, UniProt P53341) | true (1) |
| COc1ccc(/C=C/C(=O)NC[C@H]2N[C@H](CO)[C@@H](O)[C@@H]2O)cc1OC(C)=O | α-glucosidase (Saccharomyces cerevisiae, UniProt P53341) | false (0) |
| O=C(NC[C@H]1N[C@H](CO)[C@@H](O)[C@@H]1O)c1cn(Cc2ccccc2)c2ccccc12 | α-glucosidase (Saccharomyces cerevisiae, UniProt P53341) | true (1) |
| COC(=O)c1ccc2[nH]c(C(=O)NC[C@H]3N[C@H](CO)[C@@H](O)[C@@H]3O)cc2c1 | α-glucosidase (Saccharomyces cerevisiae, UniProt P53341) | false (0) |
| O=C(Cc1c[nH]c2ccccc12)NC[C@H]1N[C@H](CO)[C@@H](O)[C@@H]1O | α-glucosidase (Saccharomyces cerevisiae, UniProt P53341) | true (1) |
| O=C(NC[C@H]1N[C@H](CO)[C@@H](O)[C@@H]1O)C1Cc2ccccc21 (some centres unmarked) | α-glucosidase (Saccharomyces cerevisiae, UniProt P53341) | true (1) |
| O=C(CCc1c[nH]c2ccccc12)NC[C@H]1N[C@H](CO)[C@@H](O)[C@@H]1O | α-glucosidase (Saccharomyces cerevisiae, UniProt P53341) | true (1) |

Now for a further molecule.
I'd appreciate it if you could check whether `O=C(NC[C@H]1N[C@H](CO)[C@@H](O)[C@@H]1O)c1ccc2ccccc2c1` has IC50 smaller than 20 µM.
false (0)

----------
# Tested on: N-acetyl-β-hexosaminidase
# Assay info: N-acetyl-β-hexosaminidase inhibition assay (in situ screen, IC50, Ki)
# Format: biochemical, jack bean
# Assay context: reaction product at 30 μM, in situ screening
The threshold is inclusive: N-acetyl-β-hexosaminidse Inhibition (%) of exactly 50% counts as yes; values below receive no.

| Compound | Group label |
| --- | --- |
| O=C(CO)NC[C@H]1N[C@H](CO)[C@@H](O)[C@@H]1O [Compound 6] | yes |

N-acetyl-β-hexosaminidse Inhibition (%) >= 50% for CN(C)c1ccc(/C=C/C(=O)NC[C@H]2N[C@H](CO)[C@@H](O)[C@@H]2O)cc1 [Compound 29] ?
no

Check the entry CC(=O)NC[C@H]1N[C@H](CO)[C@@H](O)[C@@H]1O [Compound 5] : does N-acetyl-β-hexosaminidse Inhibition (%) equal or exceed 50%?
yes

I'd appreciate it if you could say whether O=C(Cc1c[nH]c2ccccc12)NC[C@H]1N[C@H](CO)[C@@H](O)[C@@H]1O [Compound 20] has N-acetyl-β-hexosaminidse Inhibition (%) at least equal to 50%.
no

Threshold query (N-acetyl-β-hexosaminidse Inhibition (%) >= 50%) on O=C(NC[C@H]1N[C@H](CO)[C@@H](O)[C@@H]1O)C1Cc2ccccc21 (some centres unmarked) [Compound 24]
no

N-acetyl-β-hexosaminidse Inhibition (%) >= 50% for O=C(NC[C@H]1N[C@H](CO)[C@@H](O)[C@@H]1O)c1cn(Cc2ccccc2)c2ccccc12 [Compound 23] ?
no

Hello, I need to know if CSc1ccccc1C(=O)NC[C@H]1N[C@H](CO)[C@@H](O)[C@@H]1O [Compound 14] has measured N-acetyl-β-hexosaminidse Inhibition (%) not below 50%. Thanks!
yes

Reported N-acetyl-β-hexosaminidse Inhibition (%) at or above 50%? O=C(/C=C/c1cccc(Cl)c1)NC[C@H]1N[C@H](CO)[C@@H](O)[C@@H]1O [Compound 13]
no
